# METHOD_NOTES: in vitro
# DETAILS: African green monkey
ENDPOINT_NAME: CC50 (µM)
Note: unit µM is implicit; provide only the numeric part.

Query: Which CC50 reading was recorded for the molecule CCN(CC)C(=S)SSC(=S)N(CC)CC [disulfiram] ?
Response: 15.7
